- system_name: T1, human CD4 on cells (SKW3 cells; human PBMCs) (human, UniProt P01730 26-458)
- T1 construct: whole, on cells; SKW3 CD4 knockout cells served as the negative cell line in the primary screen; also called hCD4; huCD4
- assay_method_text: FACS confirmation, supernatant on SKW3 cells; background gMFI 3300
measured_metric: gMFI on SKW3 WT, anti-mFc 647

[[record]]
binder = "75110_06G04A (antibody, V domains shown, Tested as non-clonal AlivaMab Mouse Kappa hybridoma supernatant (detected with anti-mouse Fc gamma and anti-human kappa)) VH: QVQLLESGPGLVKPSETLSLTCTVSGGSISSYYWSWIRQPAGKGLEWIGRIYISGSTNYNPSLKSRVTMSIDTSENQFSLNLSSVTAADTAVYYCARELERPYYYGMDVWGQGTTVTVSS VL: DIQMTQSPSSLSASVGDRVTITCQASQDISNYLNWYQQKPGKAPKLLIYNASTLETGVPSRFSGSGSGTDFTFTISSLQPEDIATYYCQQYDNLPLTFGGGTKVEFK"
reading = "33700 gMFI"

[[record]]
binder = "75110_06E14A (antibody, V domains shown, Tested as non-clonal AlivaMab Mouse Kappa hybridoma supernatant (detected with anti-mouse Fc gamma and anti-human kappa)) VH: QVQLQESGPGLVKPSETLSLTCTVSGGSISNYFWSWIRQPAGKGLEWIGRIYSSGNTNYNPSLKSRVTMSVDTSKNQFSLKLSSVTAADTAVYYCARDREDYYYYGMDVWGQGTTVTVSS VL: DIQMTQSPSSLSASVGDRVTITCQASQDISNYLNWYQQKPGKAPKLLIYGASILETGVPSRFTGSGSGTDFTFTISSLQPEDIATYYCQQYDSLPITFGQGTRLEIK"
reading = "33800 gMFI"

[[record]]
binder = "75110_07J02A (antibody, V domains shown, Tested as non-clonal AlivaMab Mouse Kappa hybridoma supernatant (detected with anti-mouse Fc gamma and anti-human kappa)) VH: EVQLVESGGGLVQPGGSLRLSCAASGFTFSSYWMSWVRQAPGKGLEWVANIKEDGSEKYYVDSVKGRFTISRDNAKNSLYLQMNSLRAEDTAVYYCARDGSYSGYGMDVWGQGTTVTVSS VL: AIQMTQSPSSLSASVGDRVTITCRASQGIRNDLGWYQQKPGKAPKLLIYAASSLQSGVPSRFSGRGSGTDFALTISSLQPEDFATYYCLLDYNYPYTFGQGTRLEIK"
reading = "13400 gMFI"

[[record]]
binder = "75110_02N15A (antibody, V domains shown, Tested as non-clonal AlivaMab Mouse Kappa hybridoma supernatant (detected with anti-mouse Fc gamma and anti-human kappa)) VH: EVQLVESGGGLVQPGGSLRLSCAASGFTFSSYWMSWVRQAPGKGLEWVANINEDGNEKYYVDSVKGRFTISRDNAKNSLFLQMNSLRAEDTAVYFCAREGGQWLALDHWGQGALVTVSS VL: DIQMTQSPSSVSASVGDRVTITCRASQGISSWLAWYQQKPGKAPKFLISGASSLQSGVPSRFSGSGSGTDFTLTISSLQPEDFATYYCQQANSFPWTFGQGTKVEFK"
reading = "15900 gMFI"

[[record]]
binder = "75110_08D24A (antibody, V domains shown, Tested as non-clonal AlivaMab Mouse Kappa hybridoma supernatant (detected with anti-mouse Fc gamma and anti-human kappa)) VH: QVQLQESGPGLVKPSETLSLTCTVSGGSISGFYWSWIRQPAGKGLEWIGRIYTSENTNYNPSLKSRVTMSVDTSKNQFSLKLSSVTAADTAVYYCARDREGYYYYGMDVWGQGTTVTVSS VL: DIQMTQSPSSLSASVGDRVTITCQASQDISNYLNWYQQKPGKAPKLLIYAASNLETGVPSRFSGSGSGTDFTFTISSLQPEDIATYYCQQYDSLPITFGQGTRLEIK"
reading = "20100 gMFI"

